src = PubChem BioAssay AID248

# Test system: L1210 leukemia ip in BDF1 mice, survival T/C
# MEASUREMENT_DESCRIPTION: NCI In Vivo Anticancer Drug Screen. Data for tumor model L1210 Leukemia (intraperitoneal) in B6D2F1 (BDF1) mice
# EXPERIMENTAL_CONTEXT: endpoint: mean survival time; dose: 100.0 mg/kg/injection; schedule: Q04DX002 (ip); vehicle: saline with Tween-80; higher = longer survival
Inconclusive results and toxic doses are left out.
Examples of compounds with documented T/C follow.

CCCCSC(=O)C(C)O (centres undefined): 99 % of control
CCC(C)C(C=NCC(CCN(CC)CC)(c1cccc2ccccc12)C(C)CC)(CCN(CC)CC)c1cccc2ccccc12 (centres undefined): 94 % of control
C=C1CC2(OC1=O)C(=O)N(C)c1ccc(I)cc12 (centres undefined): 102 % of control

Alright, here's another compound for you.
INPUT: Notebook: pull reported T/C for L1210 leukemia ip in BDF1 mice, survival T/C, entry c1ccc(C(c2ccccc2)[Si](c2ccccc2)(c2ccccc2)c2ccccc2)cc1
OUTPUT: 90 % of control

----------
Examples of compounds with documented T/C follow.
# System: L1210 leukemia ip in BDF1 mice, survival T/C
# MEASUREMENT_DESCRIPTION: NCI In Vivo Anticancer Drug Screen. Data for tumor model L1210 Leukemia (intraperitoneal) in B6D2F1 (BDF1) mice
# EXPERIMENTAL_CONTEXT: endpoint: mean survival time; dose: 50.0 mg/kg/injection; schedule: Q01DX001 (ip); vehicle: Klucel (hydroxypropylcellulose) (HPC); higher = longer survival
Inconclusive results and toxic doses are left out.

The examples below pair each entry with its known result.
CC(C)CC1NC(=O)C(NC(=O)C(Cc2ccccc2)N(C)C)C(C(C)C)Oc2ccc(cc2)/C=C\NC1=O (centres undefined): 90 % of control
C=CCc1c[nH]c(=S)[nH]c1=O.[Hg]: 93 % of control
COC1=NS(=O)(=O)C2CCCCCCC2O1 (centres undefined): 94 % of control

INPUT: Field request: T/C | item: Cc1c2cccc(Sc3ccc(F)cc3)c2c2c3c(cccc13)[S+](c1ccc(F)cc1)C2 (centres undefined)
OUTPUT: 90 % of control

----------
# Test system: L1210 leukemia ip in BDF1 mice, survival T/C
# MEASUREMENT_DESCRIPTION: NCI In Vivo Anticancer Drug Screen. Data for tumor model L1210 Leukemia (intraperitoneal) in B6D2F1 (BDF1) mice
# EXPERIMENTAL_CONTEXT: endpoint: mean survival time; dose: 50.0 mg/kg/injection; schedule: Q01DX001 (ip); vehicle: saline; higher = longer survival
# Procedure: The antitumor activity of compounds was measured in mice bearing transplantable tumors. Survival or tumor size were measured and the results are expressed as the measurement made in the treated group (T) divided by the measurement made in the vehicle treated control group (C). The tumor model used in this assay is L1210 Leukemia (intraperitoneal) in B6D2F1 (BDF1) mice
Inconclusive results and toxic doses are left out.
VALUE_TYPE: T/C

INPUT: Notebook: pull reported T/C for L1210 leukemia ip in BDF1 mice, survival T/C, entry CCCCCCc1cc2c(cc1CCCC)CCC2
OUTPUT: 95 % of control

INPUT: Same question for O/N=C/c1ccc2c(c1)OCO2 please.
OUTPUT: 96 % of control

INPUT: Same question for Nc1c(Br)cccc1Br please.
OUTPUT: 101 % of control

----------
# Tested on: L1210 leukemia ip in BDF1 mice, survival T/C
# MEASUREMENT_DESCRIPTION: NCI In Vivo Anticancer Drug Screen. Data for tumor model L1210 Leukemia (intraperitoneal) in B6D2F1 (BDF1) mice
# EXPERIMENTAL_CONTEXT: endpoint: mean survival time; dose: 6.25 mg/kg/injection; schedule: Q01DX009 (ip); vehicle: saline; higher = longer survival
Inconclusive results and toxic doses are left out.
Examples of compounds with documented T/C follow.

The examples below pair each entry with its known result.
CC(=O)OC12CC[N+]3(C)CCCCC3C1=Nc1ccccc12 (stereo not given): 98 % of control
O=C(CCCN1CCC2(CC1)C(=O)NCN2c1ccccc1)c1ccc(F)cc1: 97 % of control

INPUT: Field request: T/C | item: CN(C)NCCN1CCN(CCCN2c3ccccc3Sc3ccc(C(F)(F)F)cc32)CC1
OUTPUT: 116 % of control

INPUT: Same question for CCCCn1cnc(=O)c2[nH]cnc21 please.
OUTPUT: 94 % of control

INPUT: Same question for CSc1ccc2c(c1)N(CCCN(C)C)c1ccccc1S2 please.
OUTPUT: 120 % of control

----------
# System: L1210 leukemia ip in BDF1 mice, survival T/C
# MEASUREMENT_DESCRIPTION: NCI In Vivo Anticancer Drug Screen. Data for tumor model L1210 Leukemia (intraperitoneal) in B6D2F1 (BDF1) mice
# EXPERIMENTAL_CONTEXT: endpoint: mean survival time; dose: 100.0 mg/kg/injection; schedule: Q01DX009 (ip); vehicle: saline; higher = longer survival
Toxic doses and inconclusive results are not listed.
VALUE_TYPE: T/C

The examples below pair each entry with its known result.
CCOC(=O)/C(C#N)=C/C(C)c1ccccc1 (stereo not given): 108 % of control
Cc1cccc(C)c1-c1c2ccccc2cc2ccccc12: 95 % of control
Nc1nc(N)c2nc3c(nc2n1)C(=O)N(c1ccc(C(=O)NC(CCC(=O)O)C(=O)O)cc1)C3 (stereo not given): 94 % of control
CSc1ncnc2c1ncn2NC(=O)C1CCC(=O)N1 (stereo not given): 104 % of control
COC(=O)Cc1cc(=O)c2ccccc2[nH]1: 103 % of control

INPUT: Field request: T/C | item: CCOC(=O)C(NC=O)C(=O)OCC
OUTPUT: 101 % of control

INPUT: Same question for CC(=O)Oc1cccc2c1C(=O)c1ccccc1C2=O please.
OUTPUT: 103 % of control

----------
Examples of molecules with documented T/C follow.
# Test system: L1210 leukemia ip in BDF1 mice, survival T/C
# MEASUREMENT_DESCRIPTION: NCI In Vivo Anticancer Drug Screen. Data for tumor model L1210 Leukemia (intraperitoneal) in B6D2F1 (BDF1) mice
# EXPERIMENTAL_CONTEXT: endpoint: mean survival time; dose: 100.0 mg/kg/injection; schedule: Q01DX009 (ip); vehicle: Klucel (hydroxypropylcellulose) (HPC); higher = longer survival
# Description: The antitumor activity of compounds was measured in mice bearing transplantable tumors. Survival or tumor size were measured and the results are expressed as the measurement made in the treated group (T) divided by the measurement made in the vehicle treated control group (C). The tumor model used in this assay is L1210 Leukemia (intraperitoneal) in B6D2F1 (BDF1) mice
Toxic doses and inconclusive results are not listed.

The examples below pair each entry with its known result.
O=c1cc(-c2ccc(Cl)cc2)oc(-c2ccc(Cl)cc2)c1: 93 % of control
O=[N+]([O-])c1ccc(C(Cl)S(=O)(=O)c2ccccc2)cc1 (stereo not drawn): 92 % of control
Cc1ccccc1C(=O)C(=O)c1ccccc1C: 95 % of control

Alright, here's another molecule for you.
INPUT: Field request: T/C | item: CCCCSP(Oc1ccccc1)SCCCC
OUTPUT: 89 % of control

----------
# Tested on: L1210 leukemia ip in BDF1 mice, survival T/C
# MEASUREMENT_DESCRIPTION: NCI In Vivo Anticancer Drug Screen. Data for tumor model L1210 Leukemia (intraperitoneal) in B6D2F1 (BDF1) mice
# EXPERIMENTAL_CONTEXT: endpoint: mean survival time; dose: 400.0 mg/kg/injection; schedule: Q01DX001 (ip); vehicle: carboxymethylcellulose (CMC); higher = longer survival
Inconclusive results and toxic doses are left out.
Examples of molecules with documented T/C follow.

The examples below pair each entry with its known result.
CN(C)c1ccc(C=Nc2ccc(/C=C3\C=Cc4ccccc43)cc2)cc1: 96 % of control
CC(=O)Nc1ccc2c(c1)-c1ccc(F)cc1C2: 102 % of control
COC(=O)c1cc(C)cc(OC(=S)N(C)C)c1C: 96 % of control
CCN(CC)c1ccc(/C=C2/C=Cc3ccccc32)cc1: 95 % of control
CCOC(=O)NC1CC2CCC1C2 (configuration not stated): 103 % of control

INPUT: Field request: T/C | item: O=C(O)CSc1ccc([N+](=O)[O-])cn1
OUTPUT: 101 % of control

INPUT: Same question for CC(=O)OCC1OC(n2cc(C)c(=O)[nH]c2=O)C(Nc2ccc([N+](=O)[O-])cc2[N+](=O)[O-])C(OC(C)=O)C1OC(C)=O (configuration not stated) please.
OUTPUT: 89 % of control

----------
Examples of compounds with documented T/C follow.
# System: L1210 leukemia ip in BDF1 mice, survival T/C
# MEASUREMENT_DESCRIPTION: NCI In Vivo Anticancer Drug Screen. Data for tumor model L1210 Leukemia (intraperitoneal) in B6D2F1 (BDF1) mice
# EXPERIMENTAL_CONTEXT: endpoint: mean survival time; dose: 200.0 mg/kg/injection; schedule: Q01DX001 (ip); vehicle: saline; higher = longer survival
Inconclusive results and toxic doses are left out.

The examples below pair each entry with its known result.
CCOC(=O)Cn1c(C)cnc1C: 104 % of control
CCC1C(=O)OCc2c1ccn(C)c2=O (configuration not stated): 106 % of control
Ic1cccc(/C=N/Nc2nnc(N/N=C/c3cccc(I)c3)c3ccccc23)c1: 102 % of control
CC(=O)C(Cc1ccccc1)(c1ccccc1)c1ccccc1: 97 % of control
O=C(c1ccccc1)c1cc(-c2cc(=O)cc(-c3cc(C(=O)c4ccccc4)c(O)cc3O)o2)c(O)cc1O: 105 % of control

INPUT: Field request: T/C | item: COC(=O)/C(C)=C/CC(C)C(=O)OC (configuration not stated)
OUTPUT: 105 % of control

INPUT: Same question for O=NN(CCCCl)C(=O)NC1CCCCC1 please.
OUTPUT: 102 % of control

INPUT: Same question for CC(=O)OCC1OC(COC(C)=O)(c2ccc(C)cc2)C(OC(C)=O)C1OC(C)=O (configuration not stated) please.
OUTPUT: 94 % of control

INPUT: Same question for c1ccc(-c2nc3nnnn3nc2-c2ccccc2)cc1 please.
OUTPUT: 98 % of control

INPUT: Same question for CC(=O)Oc1ccc(CCN(C)C2CC3CCC2(C)C3(C)C)cc1OC(C)=O (configuration not stated) please.
OUTPUT: 93 % of control

INPUT: Same question for CCOC(C(=O)N(C)CCN(C)CCc1ccccc1)(c1ccccc1)c1ccccc1 please.
OUTPUT: 94 % of control

INPUT: Same question for CC(CCOC(=O)c1ccccc1)OC(=O)c1ccccc1 (configuration not stated) please.
OUTPUT: 121 % of control
